System: CEM cells HIV-1 protection, formazan growth assay
PROTOCOL_DESCRIPTION: NCI AIDS Antiviral Assay;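 active means compounds giving half or more protection of infected cells from virus-caused growth loss, again on retest; inactive means the rest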
Where a SMILES comes first, the peptide text is derived from it. The star is where a group is joined. Myristoyl = CCCCCCCCCCCCCC(=O)*
Outcomes: active, inactive

* Cc1cccc(CC(=O)c2ccccc2)n1 | inactive
* Cc1ccc(CC2(OCCN(C)C)CCC(C(C)(C)C)CC2)cc1 (stereo not drawn) | inactive
* [N-]=[N+]=CC(=O)CCC(=O)N(c1ccccc1)c1ccccc1 | active
* O=Cc1cn(CCCCCn2cc(C=O)c3ccccc32)c2ccccc12 | inactive
* C=CC(C)(C)n1cc(C2=C(O)C(=O)C(c3c(CC=C(C)C)[nH]c4ccccc34)=C(O)C2=O)c2ccccc21 | inactive
* O=C1c2cccnc2S(=O)(=O)N1c1ccc(Br)cc1 | inactive
* COc1ccccc1/C=C\C#N | inactive
* CC(C)=NOC(=O)OC[C@H]1O[C@@H](n2cnc3c(N)ncnc32)C(O)C1O (stereo partly drawn) | inactive
* CCCNC(=O)Cn1c(C)cc2ccccc21 | inactive
* O=C1/C(=C/c2ccc3c(c2)CCC3)Cc2cc3c(cc21)CCC3 | inactive
* O=c1[nH]c(=O)n([C@H]2CCCO2)cc1F | inactive
* CCOC(=O)c1nc2cc(C(F)(F)F)ccc2nc1Nc1ccc(F)cc1 | inactive
* O=Nc1c(O)cc(Nc2ccc(Br)cc2)c2ccccc12 | inactive
* Cc1cccc2c1c(=O)c1c(O)cc3c(c1n2C)C=CC(C)(C)O3 | active
* Cc1ccsc1/C=N/Nc1nncc2ccccc12 | inactive
* Nc1ncnc2c1ncn2[C@H]1CC[C@]2(CO)C[C@H]12 | inactive
* Cc1cc2c(cc1-c1cc3c(cc1C)C(C(C)C)=C(O)C(=O)/C3=C\Nc1c(C)n(C)n(-c3ccccc3)c1=O)/C(=C/Nc1c(C)n(C)n(-c3ccccc3)c1=O)C(=O)C(O)=C2C(C)C | inactive
* O=C(/C=C/c1ccc(Cl)c(Cl)c1)c1ccccc1Cl | inactive
* C=C1c2nc3ccccc3n2C=C(c2ccccc2)N1c1ccc([N+](=O)[O-])cc1 | inactive
* CN(C)CCOc1ccc(-c2c(Oc3ccccc3)c(=O)oc3ccccc23)cc1 | inactive
* OC1(c2ccccc2)C2CCN(CC2)C1CN1CCOCC1 (stereo not drawn) | inactive
* CCCCCCCCCCCCCC(=O)NCC(=O)NC(C)C(=O)NC(CCCNC(=N)N)C(=O)NC(C)C(=O)NC(CO)C(=O)NC(C(=O)NC(CC(C)C)C(=O)NC(CO)C(=O)NCC(=O)NCC(=O)NC(CCC(=O)O)C(=O)NC(CC(C)C)C(=O)NC(CC(=O)O)C(=O)NC(CCCNC(=N)N)C(=O)NC(Cc1c[nH]c2ccccc12)C(=O)NC(Cc1ccc(O)cc1)C(N)=O)C(C)C (stereo not drawn) (Myristoyl-GARASVLSGGELDRWY-NH2; configuration not given here) | inactive
* O=C(CCCN1CCc2[nH]c3cc(F)ccc3c2C1)c1ccc(F)cc1 | inactive
